Here the recorded Cmax is given for each entry.
Assay: Plasma concentrations of ayahuasca compounds and metabolites after oral ayahuasca (LC/MS/MS)
Type: in vivo, human
Details: both sexes, human, in vivo, po, plasma, 16 volunteers, oral ayahuasca; read-out: Cmax (min—max)

The examples below pair each entry with its known result.
CN(C)CCc1c[nH]c2ccccc12: 2.49 to 65.9 ng/mL
CC1=NCCc2c1[nH]c1cc(O)ccc21: 3.11 to 48.5 ng/mL
COc1ccc2c3c([nH]c2c1)C(C)=NCC3: 1.56 to 44.4 ng/mL

Qu. # get_value(readout='Cmax', item= Cc1[nH]ccc2c1[nH]c1cc(=O)ccc12 )
Ans. < 319 ng/mL

Qu. Consider next the compound CNCCc1c[nH]c2ccccc12 in the same way.
Ans. 0.57 to 7.56 ng/mL

* * *

Here the recorded Cmax (min—max) is given for each entry.
Test: Plasma concentrations of ayahuasca compounds and metabolites after oral ayahuasca (LC/MS/MS)
Assay type: in vivo, human
Conditions: plasma, 16 volunteers, oral ayahuasca

The examples below pair each entry with its known result.
CC1NCCc2c1[nH]c1cc(O)ccc21 (stereo not shown) [THH-OH, 7‐hydroxy‐tetrahydroharmine]: 0.00 to 111.01 ng/mL
O=C(O)Cc1c[nH]c2ccccc12: 61.35 to 1674.57 ng/mL
C[N+](C)([O-])CCc1c[nH]c2ccccc12 [DMT-NO, DMT‐N‐oxide]: 1.58 to 40.60 ng/mL

Kindly review the next molecule as well.
Qu. # get_value(readout='Cmax (min—max)', item= COc1ccc2c3c([nH]c2c1)[C@@H](C)NCC3 [THH, tetrahydroharmine] )
Ans. 22.62 to 895.70 ng/mL

* * *

Test system: healthy volunteers
Experiment: Association between plasma concentration and EEG spectral changes (generalized linear models)
Assay type: in vivo, human
Settings: one large widespread bilateral cluster
measure: Cohen's d, plasma concentration vs fast-gamma power increase
# respond with the number and nothing more

The examples below pair each entry with its known result.
COc1ccc2c3c([nH]c2c1)C(C)=NCC3: 0.0032
COc1ccc2c(c1)[nH]c1c(C)nccc12: 0.0312
COc1ccc2c3c([nH]c2c1)[C@@H](C)NCC3 [THH, tetrahydroharmine]: 0.0501

Qu. Which Cohen's d, plasma concentration vs fast-gamma power increase is reported with healthy volunteers for this entry: Cc1[nH]ccc2c1[nH]c1cc(=O)ccc12 ?
Ans. 0.0463

* * *

Experiment: Plasma concentrations of ayahuasca compounds and metabolites after oral ayahuasca (LC/MS/MS)
Format: in vivo, human
Conditions: plasma, 16 volunteers, oral ayahuasca
Excerpt: A sample of six liters of "Hoasca" was donated by the União do Vegetal (UDV) church in Brazil for the specific purpose of use in this study. Quantification of the main compounds in the brew was done with liquid chromatography-electrospray ionization-tandem mass spectrometry (LC/MS/MS). […]
measure: AUC (min—max)

The examples below pair each entry with its known result.
Cc1[nH]ccc2c1[nH]c1cc(=O)ccc12: 0.00 to 1550.35 g·min/mL
COc1ccc2c(c1)[nH]c1c(C)nccc12: 21.37 to 2325.28 g·min/mL
CN(C)CCc1c[nH]c2ccccc12: 9.52 to 219.10 g·min/mL
CNCCc1c[nH]c2ccccc12: 1.52 to 21.69 g·min/mL

Qu. # get_value(readout='AUC (min—max)', item= CC1=NCCc2c1[nH]c1cc(O)ccc21 )
Ans. 9.91 to 204.99 g·min/mL

Qu. Consider next the compound COc1ccc2c3c([nH]c2c1)C(C)=NCC3 in the same way.
Ans. 6.16 to 199.78 g·min/mL
